All figures here come from patent US20220354844A1.

Assay: Compound 1 single dose rat PK study
Assay type: in vivo, male Sprague Dawley rats
Conditions: male, Sprague Dawley, plasma, iv, 2 mg/kg, single iv dose 2 mg/kg, individual rats, first plasma collection time listed as Tmax
OBSERVATION TYPE: Tmax (min)
API: value field is a number in min; no unit string.

Tell me Tmax reported for CC(=O)N1CCc2c(C(=O)N3CCC(c4ccc(F)c(F)c4C(F)(F)F)CC3)n[nH]c2C1 [Compound 1] 4.8

---

Assay: Compound 1 single dose rat PK study
Assay type: in vivo, male Sprague Dawley rats
Details: male, Sprague Dawley, plasma, iv, 2 mg/kg, single iv dose 2 mg/kg, Mean of the 3 rats, read-out: t1/2 (converted)
OBSERVATION TYPE: half-life (h)
API: value field is a number in h; no unit string.

Tell me half-life reported for "CC(=O)N1CCc2c(C(=O)N3CCC(c4ccc(F)c(F)c4C(F)(F)F)CC3)n[nH]c2C1" 8.5

---

Assay: Compound 2 single dose rat PK study
Format: in vivo, male Sprague Dawley rats
Conditions: male, Sprague Dawley, plasma, po, 5 mg/kg, single po dose 5 mg/kg, individual rats
OBSERVATION TYPE: AUC(0-t) (ng·h/mL)
API: value field is a number in ng·h/mL; no unit string.

Tell me AUC(0-t) reported for CC(=O)N1Cc2[nH]nc(C(=O)N3CCC(c4ccc(F)c(F)c4C(F)(F)F)CC3)c2C1 [Compound 2] 5280

---

Test: Compound 1 single dose non-human primate PK study
Type: in vivo, Cynomolgus Macaques
Settings: cynomolgus monkey, plasma, po, 5 mg/kg, NHP, single po dose 5 mg/kg, Mean of the 3 animals
OBSERVATION TYPE: half-life
For clarity, give the value followed by its unit.

Tell me half-life reported for CC(=O)N1CCc2c(C(=O)N3CCC(c4ccc(F)c(F)c4C(F)(F)F)CC3)n[nH]c2C1 [Compound 1] 8.5 h

---

Experiment: Compound 1 single dose mouse PK study
Format: in vivo, male CD-1 mice
Settings: male, CD-1, plasma, single po dose 5 mg/kg
Description: A pharmacokinetic study of Compound 1 following a single intravenous or oral dose administration to male CD-1 mice was conducted, the results of which are found in Table 4 and FIGS. 15-20.
OBSERVATION TYPE: AUC(0-t) (ng·h/mL)
API: value field is a number in ng·h/mL; no unit string.

Tell me AUC(0-t) reported for CC(=O)N1CCc2c(C(=O)N3CCC(c4ccc(F)c(F)c4C(F)(F)F)CC3)n[nH]c2C1 [Compound 1] 1800

---

Test: Compound 1 single dose non-human primate PK study
Type: in vivo, Cynomolgus Macaques
Settings: cynomolgus monkey, plasma, po, 5 mg/kg, NHP, single po dose 5 mg/kg, individual animals; read-out: MRT last
OBSERVATION TYPE: MRT last (h)
API: value field is a number in h; no unit string.

Tell me MRT last reported for "CC(=O)N1CCc2c(C(=O)N3CCC(c4ccc(F)c(F)c4C(F)(F)F)CC3)n[nH]c2C1" 10.2

---

Assay: Compound 2 single dose rat PK study
Type: in vivo, male Sprague Dawley rats
Details: male, Sprague Dawley, plasma, iv, 2 mg/kg, single iv dose 2 mg/kg, individual rats
OBSERVATION TYPE: half-life

Tell me half-life reported for CC(=O)N1Cc2[nH]nc(C(=O)N3CCC(c4ccc(F)c(F)c4C(F)(F)F)CC3)c2C1 [Compound 2] 7.1 h
